# Format: in vivo, mice (C57BL/6J, C3H/HeJ)
# experimental_parameters: male, C3H/HeJ, mouse, serum, po, 500 mg/kg
measure: concentration at 30 min (µM)

COc1cc(/C=C/C(=O)CC(=O)/C=C/c2ccc(O[C@@H]3O[C@H](C(=O)O)[C@@H](O)[C@H](O)[C@H]3O)c(OC)c2)ccc1O [curcumin-glucuronide] | 80

====

# Format: in vivo, mice (C57BL/6J, C3H/HeJ, mps/mps)
# experimental_parameters: female, C3H/HeJ, mouse, bone marrow suspension, ip, 100 mg/kg
measure: concentration at 20 min

COc1cc(/C=C/C(=O)CC(=O)/C=C/c2ccc(O[C@@H]3O[C@H](C(=O)O)[C@@H](O)[C@H](O)[C@H]3O)c(OC)c2)ccc1O [curcumin-glucuronide] | 2700 nM

====

# Assay type: in vivo, mice (C57BL/6J, C3H/HeJ, mps/mps)
# experimental_parameters: female, C57BL/6J, mouse, bone marrow suspension, ip, 100 mg/kg
measure: concentration at 20 min

COc1cc(/C=C/C(=O)CC(=O)/C=C/c2ccc(O[C@@H]3O[C@H](C(=O)O)[C@@H](O)[C@H](O)[C@H]3O)c(OC)c2)ccc1O [curcumin-glucuronide] | 1300 nM

====

# Assay type: in vivo, mice (C57BL/6J, C3H/HeJ)
# experimental_parameters: C57BL/6J, mouse, bone marrow suspension, po, 500 mg/kg
measure: concentration at 30 min (nM)

COc1cc(/C=C/C(=O)CC(=O)/C=C/c2ccc(O[C@@H]3O[C@H](C(=O)O)[C@@H](O)[C@H](O)[C@H]3O)c(OC)c2)ccc1O [curcumin-glucuronide] | 360
